Entry source: the supplement of paper PMC10307832

Exercise: state measured relative viability for each of the compounds provided.
# Test system: LC-2-ad
# ASSAY PROTOCOL: relative viability (nuclei count vs DMSO), 5 days (fraction); higher = more cells survive
# STATED CONDITIONS: first compound 0.01 µM

Q: I am curious: what relative viability value has been reported for CCN(CC)CCCCNc1ncc2cc(-c3cc(OC)cc(OC)c3)c(NC(=O)NC(C)(C)C)nc2n1 + NC(=O)Nc1cc(-c2cccc(F)c2)sc1C(=O)N[C@H]1CCCNC1 [AZD7762] (partner 0.2 µM) ?
Ans: 0.878

Q: // relative viability lookup, key: CCN(CC)CCCCNc1ncc2cc(-c3cc(OC)cc(OC)c3)c(NC(=O)NC(C)(C)C)nc2n1 + Nc1ncn([C@H]2C[C@H](O)[C@@H](CO)O2)c(=O)n1 [Decitabine] (partner 2 µM)
Ans: 0.827

Q: // relative viability lookup, key: O=c1cc(N2CCOCC2)oc2c(-c3cccc4c3sc3ccccc34)cccc12 + Cc1nc(NC(=O)N2CCC[C@H]2C(N)=O)sc1-c1ccnc(C(C)(C)C(F)(F)F)c1 [Alpelisib] (partner 2 µM)
Ans: 0.91

Q: Quick one: relative viability of CCN(CC)CCCCNc1ncc2cc(-c3cc(OC)cc(OC)c3)c(NC(=O)NC(C)(C)C)nc2n1 + CS(=O)(=O)CCNCc1ccc(-c2ccc3ncnc(Nc4ccc(OCc5cccc(F)c5)c(Cl)c4)c3c2)o1 [Lapatinib] (partner 2 µM) ?
Ans: 1.05

Q: May I ask what relative viability has been recorded for O=c1cc(N2CCOCC2)oc2c(-c3cccc4c3sc3ccccc34)cccc12 + CC(=O)Nc1cccc(-n2c(=O)n(C3CC3)c(=O)c3c(Nc4ccc(I)cc4F)n(C)c(=O)c(C)c32)c1 [Trametinib] (partner 0.02 µM) ?
Ans: 0.982

Q: I have this compound here, O=c1cc(N2CCOCC2)oc2c(-c3cccc4c3sc3ccccc34)cccc12 + O=C(c1cc(Cc2n[nH]c(=O)c3ccccc23)ccc1F)N1CCN(C(=O)C2CC2)CC1 [Olaparib] (partner 8 µM) , and I need its recorded relative viability.
Ans: 0.707

Q: Return reported relative viability; argument: O=c1cc(N2CCOCC2)oc2c(-c3cccc4c3sc3ccccc34)cccc12 + Nc1nc2[nH]cc(CCc3ccc(C(=O)N[C@@H](CCC(=O)O)C(=O)O)cc3)c2c(=O)[nH]1 [Pemetrexed] (partner 0.2 µM)
Ans: 0.267

Q: May I ask what relative viability has been recorded for O=c1cc(N2CCOCC2)oc2c(-c3cccc4c3sc3ccccc34)cccc12 + CC(C)C[C@H](NC(=O)[C@H](Cc1ccccc1)NC(=O)c1cnccn1)B(O)O [Bortezomib] (partner 0.002 µM) ?
Ans: 1.15

====

# System: NCI-H2087
# ASSAY PROTOCOL: relative viability (nuclei count vs DMSO), 5 days (fraction); higher = more cells survive
# STATED CONDITIONS: first compound 8 µM
Provide the recorded relative viability for the entries that follow.
Simply state the number, no unit and no words.

Q: Give the measured relative viability of O=c1cc(-c2cccc3c2Sc2ccccc2S3)oc(N2CCOCC2)c1 + O=C(CCCCCCC(=O)Nc1ccccc1)NO [Vorinostat] (partner 1 µM) .
Ans: 0.917

Q: I would be grateful if you could share the reported relative viability for O=c1cc(-c2cccc3c2Sc2ccccc2S3)oc(N2CCOCC2)c1 + N=C(N)NC(=N)NCCc1ccccc1 [Phenformin] (partner 250 µM) .
Ans: 0.462

Q: Value lookup for relative viability; key = O=c1cc(-c2cccc3c2Sc2ccccc2S3)oc(N2CCOCC2)c1 + CCNC(=O)c1noc(-c2cc(C(C)C)c(O)cc2O)c1-c1ccc(CN2CCOCC2)cc1 [Luminespib] (partner 0.01 µM)
Ans: 0.2

====

# Test system: NCI-H1355
# ASSAY PROTOCOL: relative viability (nuclei count vs DMSO), 5 days (fraction); higher = more cells survive
# STATED CONDITIONS: first compound 0.1 µM
# fulfilled = relative viability below 0.6 (exclusive); not fulfilled = relative viability at/above 0.6

Q: Does the reported relative viability of O=c1cc(N2CCOCC2)oc2c(-c3cccc4c3sc3ccccc34)cccc12 + CC(=O)Nc1cccc(-n2c(=O)n(C3CC3)c(=O)c3c(Nc4ccc(I)cc4F)n(C)c(=O)c(C)c32)c1 [Trametinib] (partner 0.02 µM) stay below 0.6?
Ans: fulfilled

Q: In plain terms, does CCN(CC)CCCCNc1ncc2cc(-c3cc(OC)cc(OC)c3)c(NC(=O)NC(C)(C)C)nc2n1 + Nc1nc2[nH]cc(CCc3ccc(C(=O)N[C@@H](CCC(=O)O)C(=O)O)cc3)c2c(=O)[nH]1 [Pemetrexed] (partner 0.2 µM) come in under 0.6 for relative viability?
Ans: not fulfilled

Q: Given O=c1cc(N2CCOCC2)oc2c(-c3cccc4c3sc3ccccc34)cccc12 + COc1cccc2cc(-c3nc([C@H]4CC[C@H](C(=O)O)CC4)n4ncnc(N)c34)[nH]c12 [OSI-027] (partner 0.5 µM) , is recorded relative viability strictly lower than 0.6?
Ans: fulfilled

Q: Consider CCN(CC)CCCCNc1ncc2cc(-c3cc(OC)cc(OC)c3)c(NC(=O)NC(C)(C)C)nc2n1 + Cc1nc(NC(=O)N2CCC[C@H]2C(N)=O)sc1-c1ccnc(C(C)(C)C(F)(F)F)c1 [Alpelisib] (partner 2 µM) . Does its relative viability lie strictly below 0.6?
Ans: not fulfilled

Q: Is relative viability of CCN(CC)CCCCNc1ncc2cc(-c3cc(OC)cc(OC)c3)c(NC(=O)NC(C)(C)C)nc2n1 + CC(=O)Nc1cccc(-n2c(=O)n(C3CC3)c(=O)c3c(Nc4ccc(I)cc4F)n(C)c(=O)c(C)c32)c1 [Trametinib] (partner 0.02 µM) strictly below 0.6?
Ans: fulfilled

Q: API: query returns whether the compound falls strictly under 0.6 in relative viability. Query: O=c1cc(N2CCOCC2)oc2c(-c3cccc4c3sc3ccccc34)cccc12 + CC(=O)c1c(C)c2cnc(Nc3ccc(N4CCNCC4)cn3)nc2n(C2CCCC2)c1=O [Palbociclib] (partner 0.5 µM)
Ans: fulfilled

Q: Dear reviewer, please state whether CCN(CC)CCCCNc1ncc2cc(-c3cc(OC)cc(OC)c3)c(NC(=O)NC(C)(C)C)nc2n1 + COc1cc2c(Oc3ccc(NC(=O)C4(C(=O)Nc5ccc(F)cc5)CC4)cc3F)ccnc2cc1OCCCN1CCOCC1 [Foretinib] (partner 0.25 µM) has relative viability strictly beneath 0.6.
Ans: not fulfilled

Q: Is it true that relative viability reported for O=c1cc(N2CCOCC2)oc2c(-c3cccc4c3sc3ccccc34)cccc12 + Cc1cc(Nc2cc(N3CCN(C)CC3)nc(Sc3ccc(NC(=O)C4CC4)cc3)n2)n[nH]1 [Tozasertib] (partner 0.1 µM) is less than 0.6?
Ans: fulfilled

====

# Test system: NCI-H1650
# ASSAY PROTOCOL: relative viability (nuclei count vs DMSO), 5 days (fraction); higher = more cells survive
# STATED CONDITIONS: first compound 2 µM
ENDPOINT NAME: relative viability
Lab note: jot the number down without any unit.

Q: Request - read-out relative viability | tested on NCI-H1650 | compound COCC1(CO)C(=O)C2CCN1CC2 (stereo not drawn) [PRIMA-1MET] + CCNC(=O)c1noc(-c2cc(C(C)C)c(O)cc2O)c1-c1ccc(CN2CCOCC2)cc1 [Luminespib] (partner 0.01 µM)
Ans: 0.185

Q: Identify the measured relative viability of COCC1(CO)C(=O)C2CCN1CC2 (stereo not drawn) [PRIMA-1MET] + N=C(N)NC(=N)NCCc1ccccc1 [Phenformin] (partner 250 µM) for NCI-H1650.
Ans: 0.453

Q: Requested read-out relative viability, target or system NCI-H1650, entry COCC1(CO)C(=O)C2CCN1CC2 (stereo not drawn) [PRIMA-1MET] + CC(=O)Nc1cccc(-n2c(=O)n(C3CC3)c(=O)c3c(Nc4ccc(I)cc4F)n(C)c(=O)c(C)c32)c1 [Trametinib] (partner 0.02 µM)
Ans: 0.636

Q: Lookup: relative viability / NCI-H1650 / COCC1(CO)C(=O)C2CCN1CC2 (stereo not drawn) [PRIMA-1MET] + CS(=O)(=O)N1CCN(Cc2cc3nc(-c4cccc5[nH]ncc45)nc(N4CCOCC4)c3s2)CC1 [Pictilisib] (partner 1 µM)
Ans: 0.311

Q: Notebook entry, NCI-H1650 assay: relative viability of COCC1(CO)C(=O)C2CCN1CC2 (stereo not drawn) [PRIMA-1MET] + CC(=O)c1c(C)c2cnc(Nc3ccc(N4CCNCC4)cn3)nc2n(C2CCCC2)c1=O [Palbociclib] (partner 0.5 µM) = ?
Ans: 0.317

Q: Reported relative viability for NCI-H1650, given COCC1(CO)C(=O)C2CCN1CC2 (stereo not drawn) [PRIMA-1MET] + Nc1ncn([C@H]2C[C@H](O)[C@@H](CO)O2)c(=O)n1 [Decitabine] (partner 2 µM) ?
Ans: 0.314

Q: Observed relative viability on NCI-H1650 for COCC1(CO)C(=O)C2CCN1CC2 (stereo not drawn) [PRIMA-1MET] + Nc1nc2[nH]cc(CCc3ccc(C(=O)N[C@@H](CCC(=O)O)C(=O)O)cc3)c2c(=O)[nH]1 [Pemetrexed] (partner 0.2 µM) , please.
Ans: 0.399

Q: What reported relative viability corresponds to COCC1(CO)C(=O)C2CCN1CC2 (stereo not drawn) [PRIMA-1MET] + COc1cccc2cc(-c3nc([C@H]4CC[C@H](C(=O)O)CC4)n4ncnc(N)c34)[nH]c12 [OSI-027] (partner 0.5 µM) on NCI-H1650?
Ans: 0.483
